Values compiled from ChEMBL document CHEMBL1136937.

- TEST: Metabolic stability in rat liver microsomes assessed as intrinsic clearance at 1 uM after 90 mins
- Format: ADME, Microsome
Each item that follows carries a reported microsomal CLint at 1 µM.
Use µL/min/mg as the unit, but write only the number.

| CHEMICAL_STRING | DISPLAY_UNIT | microsomal CLint at 1 µM |
| --- | --- | --- |
| CCC(=O)CCCCC[C@H](NC(=O)CCN1CCN(C)CC1)c1ncc(-c2cc(OC)c3ccccc3n2)[nH]1 | µL/min/mg | 190 |
| CCC(=O)CCCCC[C@H](NC(=O)C1CN(C)C1)c1ncc(-c2ccc3nccnc3c2)[nH]1 | µL/min/mg | 13 |
| CCC(=O)CCCCC[C@H](NC(=O)C1CN(C)C1)c1ncc(-c2cc3ccccc3nc2OC)[nH]1 | µL/min/mg | 29 |
| CCC(=O)CCCCC[C@H](NC(=O)C1CCN(C)CC1)c1ncc(-c2cc3ccccc3cn2)[nH]1 | µL/min/mg | 210 |
| CCC(=O)CCCCC[C@H](NC(=O)C1CCN(C)CC1)c1ncc(-c2ccc3ccccc3n2)[nH]1 | µL/min/mg | 110 |

Query string: Report microsomal CLint at 1 µM for CCC(=O)CCCCC[C@H](NC(=O)C1CN(C)C1)c1ncc(-c2cnc3ccccc3n2)[nH]1 please.
Result string: 27

Query string: Report microsomal CLint at 1 µM for CCC(=O)CCCCC[C@H](NC(=O)C1CN(C)C1)c1ncc(-c2cc(OC)c3ccccc3n2)[nH]1 please.
Result string: 15

====

- TEST: Clearance in Beagle dog at 1 mg/kg, iv and 2 mg/kg, po
- Assay type: ADME, organism-based, Canis lupus familiaris
- EXPERIMENTAL_CONTEXT: in vivo
ENDPOINT_LABEL: clearance

Query string: Report clearance for CCC(=O)CCCCC[C@H](NC(=O)C1CN(C)C1)c1ncc(-c2cc3ccccc3nc2OC)[nH]1 please.
Result string: 4 mL/min/kg

====

- TEST: Solubility in buffered aqueous solution at pH 4.1
- Type: physicochemical
ENDPOINT_LABEL: solubility (mg/mL)
Use mg/mL as the unit, but write only the number.

Query string: Report solubility for CCC(=O)CCCCC[C@H](NC(=O)C1CN(C)C1)c1ncc(-c2cc3ccccc3nc2OC)[nH]1 please.
Result string: 13

====

- TEST: Plasma concentration in Beagle dog at 2 mg/kg, po after 24 hrs
- Format: ADME, organism-based, Canis lupus familiaris
- Parameters: dose 2 mg/kg, route oral
ENDPOINT_LABEL: concentration at 24 h

Query string: Report concentration at 24 h for CCC(=O)CCCCC[C@H](NC(=O)C1CN(C)C1)c1ncc(-c2cc3ccccc3nc2OC)[nH]1 please.
Result string: > 100 nM

====

- TEST: Plasma concentration in Sprague-Dawley rat at 3 mg/kg, po after 24 hrs
- Format: ADME, organism-based
- Design: dose 3 mg/kg, route oral
ENDPOINT_LABEL: concentration at 24 h

Query string: Report concentration at 24 h for CCC(=O)CCCCC[C@H](NC(=O)C1CN(C)C1)c1ncc(-c2cc3ccccc3nc2OC)[nH]1 please.
Result string: > 0.1 µM

====

- System: HeLa
- TEST: Antiproliferative activity against human P53-deficient HeLa cells after 72 hrs by celltiter-blue cell viability assay
- Type: functional
ENDPOINT_LABEL: CC50
Kindly format the answer as number then unit.

Worked examples, 2 compounds total:
| CHEMICAL_STRING | TARGET_DESC | CC50 |
| --- | --- | --- |
| CCC(=O)CCCCC[C@H](NC(=O)C1CCN(C)CC1)c1ncc(-c2cc3ccccc3cn2)[nH]1 | HeLa | 22 nM |
| CCC(=O)CCCCC[C@H](NC(=O)C1CCN(C)CC1)c1ncc(-c2ccc3ncccc3c2)[nH]1 | HeLa | 200 nM |

Note: attention shifts to another entry.
Query string: So what CC50 did CC(=O)CCCCC[C@H](NC(=O)C1CCN(C)CC1)c1ncc(-c2ccc3ccccc3c2)[nH]1 get with HeLa?
Result string: 300 nM

====

- TEST: Volume of distribution at steady state in Beagle dog at 1 mg/kg, iv and 2 mg/kg, po
- Format: ADME, organism-based, Canis lupus familiaris
- EXPERIMENTAL_CONTEXT: in vivo, read-out: Vdss
ENDPOINT_LABEL: Vd (L/kg)
Use L/kg as the unit, but write only the number.

Query string: Report Vd for CCC(=O)CCCCC[C@H](NC(=O)C1CN(C)C1)c1ncc(-c2cc3ccccc3nc2OC)[nH]1 please.
Result string: 3.5

====

- TEST: Metabolic stability in rat liver microsomes assessed as intrinsic clearance at 1 uM after 90 mins
- Type: ADME, Microsome
Each item that follows carries a reported microsomal CLint at 1 µM.
Use µL/min/mg as the unit, but write only the number.

Worked examples, 4 compounds total:
| CHEMICAL_STRING | VAL |
| --- | --- |
| CCC(=O)CCCCC[C@H](NC(=O)C1CCN(C)CC1)c1ncc(-c2cnc3ccccc3c2)[nH]1 | 510 |
| CCC(=O)CCCCC[C@H](NC(=O)C1CN(C)C1)c1ncc(-c2cc3ccccc3nc2F)[nH]1 | 34 |
| CCC(=O)CCCCC[C@H](NC(=O)C1CCN(C)CC1)c1ncc(-c2ccc3ncccc3c2)[nH]1 | 98 |
| CCC(=O)CCCCC[C@H](NC(=O)C1CCN(C)CC1)c1ncc(-c2cc(OC)c3ccccc3n2)[nH]1 | 36 |

Query string: Report microsomal CLint at 1 µM for CCC(=O)CCCCC[C@H](NC(=O)CCN(C)C)c1ncc(-c2cc(OC)c3ccccc3n2)[nH]1 please.
Result string: 38

====

- TEST: Terminal half life in Beagle dog at 1 mg/kg, iv and 2 mg/kg, po
- Format: ADME, organism-based, Canis lupus familiaris
- EXPERIMENTAL_CONTEXT: in vivo, read-out: beta t1/2 (converted)
ENDPOINT_LABEL: half-life (h)
Use h as the unit, but write only the number.

Query string: Report half-life for CCC(=O)CCCCC[C@H](NC(=O)C1CN(C)C1)c1ncc(-c2cc3ccccc3nc2OC)[nH]1 please.
Result string: 14

====

- TEST: Metabolic stability in human liver microsomes assessed as intrinsic clearance at 1 uM after 90 mins
- Format: ADME, Microsome
- EXPERIMENTAL_CONTEXT: liver microsomes
ENDPOINT_LABEL: microsomal CLint at 1 µM (µL/min/mg)
Use µL/min/mg as the unit, but write only the number.

Worked examples, 5 compounds total:
| CHEMICAL_STRING | microsomal CLint at 1 µM, µL/min/mg |
| --- | --- |
| CCC(=O)CCCCC[C@H](NC(=O)C1CN(C)C1)c1ncc(-c2cnc3ccccc3n2)[nH]1 | 19 |
| CCC(=O)CCCCC[C@H](NC(=O)C1CCN(C)CC1)c1ncc(-c2cc(OC)c3ccccc3n2)[nH]1 | 10 |
| CCC(=O)CCCCC[C@H](NC(=O)CCN(C)C)c1ncc(-c2cc(OC)c3ccccc3n2)[nH]1 | 15 |
| CCC(=O)CCCCC[C@H](NC(=O)C1CCN(C)CC1)c1ncc(-c2cc3ccccc3cn2)[nH]1 | 29 |
| CCC(=O)CCCCC[C@H](NC(=O)C1CCN(C)CC1)c1ncc(-c2cnc3ccccc3c2)[nH]1 | 49 |

Query string: Report microsomal CLint at 1 µM for CCC(=O)CCCCC[C@H](NC(=O)C1CN(C)C1)c1ncc(-c2cc(OC)c3ccccc3n2)[nH]1 please.
Result string: 16

Query string: Report microsomal CLint at 1 µM for CCC(=O)CCCCC[C@H](NC(=O)C1CN(C)C1)c1ncc(-c2cc3ccccc3nc2F)[nH]1 please.
Result string: 18

Query string: Report microsomal CLint at 1 µM for CCC(=O)CCCCC[C@H](NC(=O)C1CCN(C)CC1)c1ncc(-c2ccc3ccccc3n2)[nH]1 please.
Result string: 12

Query string: Report microsomal CLint at 1 µM for CCC(=O)CCCCC[C@H](NC(=O)C1CCN(C)CC1)c1ncc(-c2ccc3ncccc3c2)[nH]1 please.
Result string: 12

Query string: Report microsomal CLint at 1 µM for CCC(=O)CCCCC[C@H](NC(=O)C1CCN(C)CC1)c1ncc(-c2ccc3ccccc3c2)[nH]1 please.
Result string: 194

Query string: Report microsomal CLint at 1 µM for CCC(=O)CCCCC[C@H](NC(=O)CCN1CCN(C)CC1)c1ncc(-c2cc(OC)c3ccccc3n2)[nH]1 please.
Result string: 140

Query string: Report microsomal CLint at 1 µM for CCC(=O)CCCCC[C@H](NC(=O)C1CN(C)C1)c1ncc(-c2cc3ccccc3nc2OC)[nH]1 please.
Result string: 31

====

- Test system: HeLa
- TEST: Antiproliferative activity against human P53-deficient HeLa cells after 72 hrs by celltiter-blue cell viability assay
- Type: functional
// boundary case: CC50 equal to 500 nM maps to criterion not met; strictly smaller maps to criterion met

Here's what some known entries look like.
| COMPOUND | TARGET_DESC | ASSIGNED_LABEL |
| --- | --- | --- |
| Nc1ccccc1NC(=O)c1ccc(CNC(=O)OCc2cccnc2)cc1 [ENTINOSTAT] | HeLa | criterion not met |
| CCC(=O)CCCCC[C@H](NC(=O)CCN1CCN(C)CC1)c1ncc(-c2cc(OC)c3ccccc3n2)[nH]1 | HeLa | criterion met |
| CCC(=O)CCCCC[C@H](NC(=O)C1CN(C)C1)c1ncc(-c2cc3ccccc3nc2F)[nH]1 | HeLa | criterion met |
| CCC(=O)CCCCC[C@H](NC(=O)C1CN(C)C1)c1ncc(-c2ccc3nccnc3c2)[nH]1 | HeLa | criterion not met |
| CCC(=O)CCCCC[C@H](NC(=O)C1CCN(C)CC1)c1ncc(-c2ccc3ccccc3c2)[nH]1 | HeLa | criterion met |
| CCC(=O)CCCCC[C@H](NC(=O)C1CCN(C)CC1)c1ncc(-c2cc(OC)c3ccccc3n2)[nH]1 | HeLa | criterion not met |

# ---- query compound ----
Query string: Does CCC(=O)CCCCC[C@H](NC(=O)C1CCN(C)CC1)c1ncc(-c2cnc3ccccc3c2)[nH]1 have CC50 strictly under 500 nM?
Result string: criterion met
